All figures here come from the supplement of paper PMC4466140.

target: SpHof1; assay: SPOT peptide array binding signal intensity (averaged, normalized) (arbitrary units (background-subtracted, floor 0; scale differs between SH3 domains)); higher = stronger binding of the SH3 domain to the peptide
Quick reference: SPOT peptide array binding signal intensity of the listed items.
Measurement Label: SPOT peptide array binding signal intensity

{"Binder": "HVRRSILALPLGVLL", "Censoring Sign": "=", "Numeric Readout": 49}
{"Binder": "QQEQNTPPLPPKPKS", "Censoring Sign": "≤", "Numeric Readout": 0}
{"Binder": "KIRRSSLMIPNPQQF", "Censoring Sign": "=", "Numeric Readout": 94.5}
{"Binder": "NLDRSKISLPDFDDE", "Censoring Sign": "=", "Numeric Readout": 11.5}
{"Binder": "GKLKHIPRRPYEIER", "Censoring Sign": "=", "Numeric Readout": 8}
{"Binder": "RKRAPTPPAPSRSEK", "Censoring Sign": "=", "Numeric Readout": 140}
{"Binder": "IAPIPMPKPNPTHIS", "Censoring Sign": "≤", "Numeric Readout": 0}
{"Binder": "TIRRRAPLSLLESHT", "Censoring Sign": "=", "Numeric Readout": 148}
{"Binder": "YVRRRPRVRLEPLLS", "Censoring Sign": "=", "Numeric Readout": 97.6}
{"Binder": "RSRRSSFAYPQQVAI", "Censoring Sign": "=", "Numeric Readout": 93.5}
{"Binder": "NLPKRKPPKLQGPFS", "Censoring Sign": "=", "Numeric Readout": 117}
{"Binder": "DGNEEKPLLPTRPNK", "Censoring Sign": "=", "Numeric Readout": 0.25}
{"Binder": "VQPTAAPATPPRHIS", "Censoring Sign": "=", "Numeric Readout": 0.5}
{"Binder": "KMSRSPPRPPSLKII", "Censoring Sign": "=", "Numeric Readout": 19.5}
{"Binder": "PHNPSPFFPPPDFND", "Censoring Sign": "≤", "Numeric Readout": 0}
{"Binder": "KRRAPPPVPKKPSSR", "Censoring Sign": "=", "Numeric Readout": 218}
{"Binder": "IVNKPLPPLPVAGSS", "Censoring Sign": "=", "Numeric Readout": 2930}
{"Binder": "PKMLPIPSKPTLFDL", "Censoring Sign": "=", "Numeric Readout": 154}
{"Binder": "RRRDFGAPANKRPRR", "Censoring Sign": "=", "Numeric Readout": 367}
{"Binder": "VSKLRSPNTPRRLRK", "Censoring Sign": "=", "Numeric Readout": 183}
{"Binder": "FLIKFTPKFPQSIDH", "Censoring Sign": "=", "Numeric Readout": 662}
{"Binder": "RTIRKLPLMSLSEYF", "Censoring Sign": "=", "Numeric Readout": 239}
{"Binder": "YRRKSIPFAPHQITA", "Censoring Sign": "=", "Numeric Readout": 25.8}
{"Binder": "NMLSRPRLAKLPSIR", "Censoring Sign": "=", "Numeric Readout": 100}
{"Binder": "TKIRRRPQQPLTDFT", "Censoring Sign": "=", "Numeric Readout": 65.5}
{"Binder": "LLRRTIPKRPFYHVL", "Censoring Sign": "=", "Numeric Readout": 73}
{"Binder": "RRRIAYPFYPFKKLG", "Censoring Sign": "=", "Numeric Readout": 37.5}
{"Binder": "NPNRRAPRRPLSTQH", "Censoring Sign": "=", "Numeric Readout": 342}
{"Binder": "FTLPPPPPPPGLDEL", "Censoring Sign": "=", "Numeric Readout": 2.5}
{"Binder": "TKHKAPPPPPPTAET", "Censoring Sign": "=", "Numeric Readout": 1}
